- Tested on: A549
- protocolNotes: cells
- measurementContext: Homo sapiens, A549, 72 h
- Description: Antiproliferative activity against human A549 cells after 72 hrs by CCK8 assay

- itemSmiles: "S=C(SSC(=S)N1CCOCC1)N1CCOCC1"
  IC50, µM: 0.48
- itemSmiles: "S=C(SSC(=S)N1CCCOCC1)N1CCCOCC1"
  IC50, µM: 0.225
- itemSmiles: "COC[C@@H]1COCCN1C(=S)SSC(=S)N1CCOC[C@H]1COC"
  IC50, µM: 0.957

----------
Reported log10(Kinact) values for a set of molecules
- target: [Pyruvate dehydrogenase (acetyl-transferring)] kinase isozyme 1, mitochondrial (Homo sapiens)
- protocolNotes: Inhibition of full length His6-tagged PDK1 (unknown origin) expressed in Escherichia coli assessed as inactivation rate using full length His6-tagged PDHA1 as substrate up to 45 mins by ELISA
quantityKind: log10(Kinact) (log10 of the value in ×10⁻⁴ /s)

- molecule: "OC1CN(C(=S)SSC(=S)N2CC(O)C2)C1"
  quantityKind: "log10(Kinact)"
  reported: 0.68
- molecule: "S=C(SSC(=S)N1CCOC(COc2cccc3ccccc23)C1)N1CCOC(COc2cccc3ccccc23)C1 (stereo unspecified)"
  quantityKind: "log10(Kinact)"
  reported: 0.84
- molecule: "OC[C@@H]1COCCN1C(=S)SSC(=S)N1CCOC[C@H]1CO"
  quantityKind: "log10(Kinact)"
  reported: 0.51
- molecule: "C1CCc2nc(SSc3nc4c(s3)CCCCC4)sc2CC1"
  quantityKind: "log10(Kinact)"
  reported: 1.84
- molecule: "c1csc(SSc2nccs2)n1"
  quantityKind: "log10(Kinact)"
  reported: 1.75
- molecule: "S=C(SSC(=S)N1CCOc2ccccc21)N1CCOc2ccccc21"
  quantityKind: "log10(Kinact)"
  reported: 0.32

----------
- target: [Pyruvate dehydrogenase (acetyl-transferring)] kinase isozyme 1, mitochondrial (Homo sapiens, UniProt Q15118)
- Sequence (Q15118 whole entry): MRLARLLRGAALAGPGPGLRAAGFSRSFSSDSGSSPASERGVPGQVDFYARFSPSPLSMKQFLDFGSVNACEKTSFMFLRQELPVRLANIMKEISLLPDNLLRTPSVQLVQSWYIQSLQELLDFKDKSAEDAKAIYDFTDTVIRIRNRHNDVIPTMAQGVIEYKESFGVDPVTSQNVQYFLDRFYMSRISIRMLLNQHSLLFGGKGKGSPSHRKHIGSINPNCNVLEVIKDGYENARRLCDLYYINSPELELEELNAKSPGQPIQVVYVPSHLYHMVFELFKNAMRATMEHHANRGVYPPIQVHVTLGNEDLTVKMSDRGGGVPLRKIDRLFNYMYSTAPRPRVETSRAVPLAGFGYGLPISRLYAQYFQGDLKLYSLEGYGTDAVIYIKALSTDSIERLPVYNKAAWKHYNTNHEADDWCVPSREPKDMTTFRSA
- protocolNotes: Inhibition of full length His6-tagged PDK1 (unknown origin) expressed in Escherichia coli using full length His6-tagged PDHA1 as substrate after 30 mins by ELISA
Reported log10(IC50) values for a set of compounds
quantityKind: log10(IC50) (log10 of the value in nM)

- compound: "CN(C)C(=O)OCC1CN(C(=S)SSC(=S)N2CCOC(COC(=O)N(C)C)C2)CCO1 (configuration not stated)"
  quantityKind: "log10(IC50)"
  reported: 3.23
- compound: "CCOCC1CN(C(=S)SSC(=S)N2CCOC(COCC)C2)CCO1 (configuration not stated)"
  quantityKind: "log10(IC50)"
  reported: 2.00
- compound: "CCOC[C@@H]1COCCN1C(=S)SSC(=S)N1CCOC[C@H]1COCC"
  quantityKind: "log10(IC50)"
  reported: 1.86
- compound: "CCOC(=O)C1CCc2nc(SSc3nc4c(s3)CC(C(=O)OCC)CC4)sc2C1 (configuration not stated)"
  quantityKind: "log10(IC50)"
  reported: 2.04
- compound: "Cc1ccc(OCC2CN(C(=S)SSC(=S)N3CCOC(COc4ccc(C)cc4)C3)CCO2)cc1 (configuration not stated)"
  quantityKind: "log10(IC50)"
  reported: 3.38
- compound: "OCC1CN(C(=S)SSC(=S)N2CCCOC(CO)C2)CCCO1 (configuration not stated)"
  quantityKind: "log10(IC50)"
  reported: 3.45
- compound: "S=C(SSC(=S)N1CCCOC(COc2ccccc2)C1)N1CCCOC(COc2ccccc2)C1 (configuration not stated)"
  quantityKind: "log10(IC50)"
  reported: 2.78
- compound: "c1ccc2sc(SSc3nc4ccccc4s3)nc2c1 [BENZOTHIAZYL DISULFIDE]"
  quantityKind: "log10(IC50)"
  reported: 2.58
- compound: "COC(=O)C1CN(C(=S)SSC(=S)N2CCOC(C(=O)OC)C2)CCO1 (configuration not stated)"
  quantityKind: "log10(IC50)"
  reported: 1.93
- compound: "COC[C@H]1COCCN1C(=S)SSC(=S)N1CCOC[C@@H]1COC"
  quantityKind: "log10(IC50)"
  reported: 1.48
- compound: "C1Cc2nc(SSc3nc4c(s3)CCC4)sc2C1"
  quantityKind: "log10(IC50)"
  reported: 2.14
- compound: "OCCOCC1CN(C(=S)SSC(=S)N2CCCOC(COCCO)C2)CCCO1 (configuration not stated)"
  quantityKind: "log10(IC50)"
  reported: 3.83
- compound: "COCC1CN(C(=S)SSC(=S)N2CCOC(COC)C2)CCO1 (configuration not stated)"
  quantityKind: "log10(IC50)"
  reported: 1.95
- compound: "COCC1CN(C(=S)SSC(=S)N2CCCOC(COC)C2)CCCO1 (configuration not stated)"
  quantityKind: "log10(IC50)"
  reported: 2.54
- compound: "CCCCOCC1CN(C(=S)SSC(=S)N2CCCOC(COCCCC)C2)CCCO1 (configuration not stated)"
  quantityKind: "log10(IC50)"
  reported: 2.77
- compound: "CC(=O)OCC1CN(C(=S)SSC(=S)N2CCOC(COC(C)=O)C2)CCO1 (configuration not stated)"
  quantityKind: "log10(IC50)"
  reported: 2.05
- compound: "COC[C@@H]1COCCN1C(=S)SSC(=S)N1CCOC[C@H]1COC"
  quantityKind: "log10(IC50)"
  reported: 1.38
- compound: "CC1(C)CCc2nc(SSc3nc4c(s3)CC(C)(C)CC4)sc2C1"
  quantityKind: "log10(IC50)"
  reported: 2.34
- compound: "S=C(SSC(=S)N1CCOc2ccccc21)N1CCOc2ccccc21"
  quantityKind: "log10(IC50)"
  reported: 3.02
- compound: "OC[C@@H]1COCCN1C(=S)SSC(=S)N1CCOC[C@H]1CO"
  quantityKind: "log10(IC50)"
  reported: 3.39
- compound: "c1cnc2sc(SSc3nc4cccnc4s3)nc2c1"
  quantityKind: "log10(IC50)"
  reported: 2.68
- compound: "OCC1CN(C(=S)SSC(=S)N2CCOC(CO)C2)CCO1 (configuration not stated)"
  quantityKind: "log10(IC50)"
  reported: 2.85
- compound: "O=[N+]([O-])c1ccc2nc(SSc3nc4ccc([N+](=O)[O-])cc4s3)sc2c1"
  quantityKind: "log10(IC50)"
  reported: 2.21
- compound: "S=C(SSC(=S)N1CCOCC1)N1CCOCC1"
  quantityKind: "log10(IC50)"
  reported: 1.69
- compound: "CC1CN(C(=S)SSC(=S)N2CCOC(C)C2)CCO1 (configuration not stated)"
  quantityKind: "log10(IC50)"
  reported: 1.98
- compound: "C[C@@H]1CN(C(=S)SSC(=S)N2C[C@@H](C)O[C@@H](C)C2)C[C@H](C)O1"
  quantityKind: "log10(IC50)"
  reported: 1.51
- compound: "CCOCC1CN(C(=S)SSC(=S)N2CCCOC(COCC)C2)CCCO1 (configuration not stated)"
  quantityKind: "log10(IC50)"
  reported: 2.79
- compound: "S=C(SSC(=S)N1CCOC(COc2ccccc2)C1)N1CCOC(COc2ccccc2)C1 (configuration not stated)"
  quantityKind: "log10(IC50)"
  reported: 2.39
- compound: "OC1CN(C(=S)SSC(=S)N2CC(O)C2)C1"
  quantityKind: "log10(IC50)"
  reported: 2.60
- compound: "S=C(SSC(=S)N1CCO[C@H]2CCCC[C@@H]21)N1CCO[C@H]2CCCC[C@@H]21"
  quantityKind: "log10(IC50)"
  reported: 2.46
- compound: "O=C(O)C1CN(C(=S)SSC(=S)N2CCOC(C(=O)O)C2)CCO1 (configuration not stated)"
  quantityKind: "log10(IC50)"
  reported: 2.10
- compound: "S=C(SSC(=S)N1CCCOCC1)N1CCCOCC1"
  quantityKind: "log10(IC50)"
  reported: 1.41
- compound: "CN(C)C(=O)OCC1CN(C(=S)SSC(=S)N2CCCOC(COC(=O)N(C)C)C2)CCCO1 (configuration not stated)"
  quantityKind: "log10(IC50)"
  reported: 3.16
- compound: "C1Cc2nc(SSc3nc4c(s3)COCC4)sc2CO1"
  quantityKind: "log10(IC50)"
  reported: 2.23
- compound: "S=C(SSC(=S)N1CCOC(COc2cccc3ccccc23)C1)N1CCOC(COc2cccc3ccccc23)C1 (configuration not stated)"
  quantityKind: "log10(IC50)"
  reported: 3.59
- compound: "C1CCc2nc(SSc3nc4c(s3)CCCCC4)sc2CC1"
  quantityKind: "log10(IC50)"
  reported: 1.59
- compound: "c1csc(SSc2nccs2)n1"
  quantityKind: "log10(IC50)"
  reported: 2.51
- compound: "CC1CCc2nc(SSc3nc4c(s3)CC(C)CC4)sc2C1 (configuration not stated)"
  quantityKind: "log10(IC50)"
  reported: 2.08
- compound: "C1CCc2sc(SSc3nc4c(s3)CCCC4)nc2C1"
  quantityKind: "log10(IC50)"
  reported: 1.95
- compound: "O=C(O)C1CCc2nc(SSc3nc4c(s3)CC(C(=O)O)CC4)sc2C1 (configuration not stated)"
  quantityKind: "log10(IC50)"
  reported: 2.11
